Hey, just so you know, these numbers are from the Immune Epitope Database (IEDB).

- study target: HLA-A*26:01
- assay protocol: IEDB peptide-MHC binding, purified MHC/direct/fluorescence; filed as Kd, often an IC50 or EC50 that approximates it; bounds were set here for any values at or beyond the usual limits of such assays
- experimental conditions: source organism: Influenza A virus(A/swine/Shandong/fNY/2003(H9N2))
pKd: −log10 of the molar value.
assay endpoint: pKd

# sequence code, result
rows = [
    ("ERNEQGQTL", "≤ 4.70"),
]

====

- study target: HLA-B*58:01
- assay protocol: IEDB peptide-MHC binding, purified MHC/competitive/fluorescence; filed as Kd, often an IC50 or EC50 that approximates it; bounds were set here for any values at or beyond the usual limits of such assays
- experimental conditions: source organism: Escherichia coli 536
pKd: −log10 of the molar value.

# sequence code, pKd
data = [
    ("YQAENSTAE", "≤ 5.30"),
]

====

- study target: HLA-A*03:01
- assay protocol: IEDB peptide-MHC binding, purified MHC/direct/fluorescence; filed as Kd, often an IC50 or EC50 that approximates it; bounds were set here for any values at or beyond the usual limits of such assays
- experimental conditions: source organism: Camelpox virus M-96

# sequence code, Kd
measured = [
    ("SQEDNHFSL", "≥ 20 µM"),
]

====

- study target: HLA-A*02:03
- assay protocol: IEDB peptide-MHC binding, purified MHC/competitive/radioactivity; filed as Kd, often an IC50 or EC50 that approximates it; bounds were set here for any values at or beyond the usual limits of such assays
- experimental conditions: source organism: SARS coronavirus Tor2
pKd: −log10 of the molar value.
assay endpoint: pKd

# sequence code, assay endpoint, readout number
data = [
    ("FLLNKEMYL", "pKd", 8.95),
    ("ITMTTVYHI", "pKd", 8.14),
    ("FLFLAWIMLL", "pKd", 7.25),
    ("FLTSLLILV", "pKd", 7.92),
    ("LLLSICLGSL", "pKd", 6.98),
    ("ALLFLMSFTI", "pKd", 6.70),
]

====

- study target: HLA-B*57:01
- assay protocol: IEDB peptide-MHC binding, purified MHC/direct/fluorescence; filed as Kd, often an IC50 or EC50 that approximates it; bounds were set here for any values at or beyond the usual limits of such assays
- experimental conditions: source organism: Cowpox virus
assay endpoint: Kd (µM)

# sequence code, assay endpoint, unit of measurement, readout number
records = [
    ("YTDLTYQSF", "Kd", "µM", 3.76),
]

====

- study target: HLA-B*15:42
- assay protocol: IEDB peptide-MHC binding, purified MHC/competitive/fluorescence; filed as Kd, often an IC50 or EC50 that approximates it; bounds were set here for any values at or beyond the usual limits of such assays
- experimental conditions: source organism: Mycobacterium tuberculosis str. Haarlem
pKd: −log10 of the molar value.
assay endpoint: pKd

# sequence code, result
records = [
    ("YAREAGIAM", "≤ 5.30"),
]

====

- study target: HLA-B*27:20
- assay protocol: IEDB peptide-MHC binding, purified MHC/competitive/fluorescence; filed as Kd, often an IC50 or EC50 that approximates it; bounds were set here for any values at or beyond the usual limits of such assays
- experimental conditions: source organism: Vibrio vulnificus YJ016
assay endpoint: Kd (nM)

# sequence code, readout number
measured = [
    ("YQRALHTSI", 0.2),
]

====

- study target: HLA-B*44:03
- assay protocol: IEDB peptide-MHC binding, purified MHC/competitive/radioactivity; filed as Kd, often an IC50 or EC50 that approximates it; bounds were set here for any values at or beyond the usual limits of such assays
- experimental conditions: source organism: Mammarenavirus juninense

# sequence code, Kd
measured = [
    ("EDIDSVETL", "≥ 28.3 µM"),
]

====

- study target: HLA-A*11:01
- assay protocol: IEDB peptide-MHC binding, purified MHC/direct/fluorescence; filed as Kd, often an IC50 or EC50 that approximates it; bounds were set here for any values at or beyond the usual limits of such assays
- experimental conditions: source organism: Mycobacterium tuberculosis
pKd: −log10 of the molar value.

# sequence code, study target, modifier, pKd
records = [
    ("KLVGIELPK", "HLA-A*11:01", "=", 7.13),
    ("GTAPPPLTR", "HLA-A*11:01", "=", 7.69),
    ("SPREECGVF", "HLA-A*11:01", "≤", 4.70),
]

====

- study target: HLA-C*05:01
- assay protocol: IEDB peptide-MHC binding, purified MHC/direct/fluorescence; filed as Kd, often an IC50 or EC50 that approximates it; bounds were set here for any values at or beyond the usual limits of such assays
- experimental conditions: source organism: Giardia lamblia ATCC 50803
pKd: −log10 of the molar value.
assay endpoint: pKd

# sequence code, result
data = [
    ("YMRERFEPM", "≤ 4.70"),
]

====

- study target: HLA-B*45:06
- assay protocol: IEDB peptide-MHC binding, purified MHC/competitive/fluorescence; filed as Kd, often an IC50 or EC50 that approximates it; bounds were set here for any values at or beyond the usual limits of such assays
- experimental conditions: source organism: Giardia lamblia ATCC 50803
pKd: −log10 of the molar value.

# sequence code, pKd
measured = [
    ("YMRERFEPM", "≤ 5.30"),
    ("MTDVDLNYY", "≤ 5.30"),
]

====

- study target: HLA-B*51:01
- assay protocol: IEDB peptide-MHC binding, purified MHC/competitive/radioactivity; filed as Kd, often an IC50 or EC50 that approximates it; bounds were set here for any values at or beyond the usual limits of such assays
- experimental conditions: source organism: Mammarenavirus whitewaterense
pKd: −log10 of the molar value.
assay endpoint: pKd

# sequence code, assay endpoint, readout number
rows = [
    ("GPFEASWAI", "pKd", 6.00),
]

====

- study target: HLA-A*02:01
- assay protocol: IEDB peptide-MHC binding, purified MHC/direct/fluorescence; filed as Kd, often an IC50 or EC50 that approximates it; bounds were set here for any values at or beyond the usual limits of such assays
- experimental conditions: source organism: Vibrio cholerae
assay endpoint: Kd

# sequence code, assay endpoint, result
measured = [
    ("EGIEGRIAY", "Kd", "≥ 20 µM"),
]

====

- study target: HLA-B*57:01
- assay protocol: IEDB peptide-MHC binding, purified MHC/direct/fluorescence; filed as Kd, often an IC50 or EC50 that approximates it; bounds were set here for any values at or beyond the usual limits of such assays
- experimental conditions: source organism: Vibrio vulnificus

# sequence code, study target, Kd
rows = [
    ("IEFIEVVRL", "HLA-B*57:01", "≥ 20 µM"),
    ("YQRALHTSI", "HLA-B*57:01", "≥ 20 µM"),
]

====

- study target: HLA-B*08:01
- assay protocol: IEDB peptide-MHC binding, purified MHC/competitive/fluorescence; filed as Kd, often an IC50 or EC50 that approximates it; bounds were set here for any values at or beyond the usual limits of such assays
- experimental conditions: source organism: Vibrio vulnificus YJ016
pKd: −log10 of the molar value.

# sequence code, pKd
records = [
    ("YQRALHTSI", 6.53),
]

====

- study target: HLA-A*33:01
- assay protocol: IEDB peptide-MHC binding, purified MHC/competitive/radioactivity; filed as Kd, often an IC50 or EC50 that approximates it; bounds were set here for any values at or beyond the usual limits of such assays
- experimental conditions: source organism: Mammarenavirus guanaritoense
Examples of sequences with documented Kd follow.
assay endpoint: Kd

# sequence code, result
rows = [
    ("TMEIEDQEYH", "≥ 70 µM"),
    ("VTEFRRTAIH", "5.85 µM"),
]

====

- study target: HLA-B*15:17
- assay protocol: IEDB peptide-MHC binding, purified MHC/competitive/fluorescence; filed as Kd, often an IC50 or EC50 that approximates it; bounds were set here for any values at or beyond the usual limits of such assays
- experimental conditions: source organism: Zaire ebolavirus
pKd: −log10 of the molar value.

# sequence code, pKd
rows = [
    ("LSDLCNFLV", "≤ 4.70"),
]

====

- study target: HLA-B*15:01
- assay protocol: IEDB peptide-MHC binding, purified MHC/direct/fluorescence; filed as Kd, often an IC50 or EC50 that approximates it; bounds were set here for any values at or beyond the usual limits of such assays
- experimental conditions: source organism: Brucella suis 1330
assay endpoint: Kd

# sequence code, result
measured = [
    ("ETVWPFFYA", "≥ 20 µM"),
]

====

Examples of sequences with documented Kd follow.
- study target: HLA-A*26:01
- assay protocol: IEDB peptide-MHC binding, purified MHC/direct/fluorescence; filed as Kd, often an IC50 or EC50 that approximates it; bounds were set here for any values at or beyond the usual limits of such assays
- experimental conditions: source organism: Mycobacterium tuberculosis str. Haarlem

# sequence code, study target, Kd
data = [
    ("SPREECGVF", "HLA-A*26:01", "≥ 20 µM"),
    ("APAKKAAAK", "HLA-A*26:01", "≥ 20 µM"),
    ("LPVEYLQVP", "HLA-A*26:01", "≥ 20 µM"),
]
